Target: T1, huCD46-His (human, UniProt P15529 35-343)
T1 construct: extracellular domain; Immobilised by amine coupling on the SPR chip; It may be the same protein as the ELISA antigen; also called Human CD46-His; human CD46; not shown: His tag
T1 sequence (looked up): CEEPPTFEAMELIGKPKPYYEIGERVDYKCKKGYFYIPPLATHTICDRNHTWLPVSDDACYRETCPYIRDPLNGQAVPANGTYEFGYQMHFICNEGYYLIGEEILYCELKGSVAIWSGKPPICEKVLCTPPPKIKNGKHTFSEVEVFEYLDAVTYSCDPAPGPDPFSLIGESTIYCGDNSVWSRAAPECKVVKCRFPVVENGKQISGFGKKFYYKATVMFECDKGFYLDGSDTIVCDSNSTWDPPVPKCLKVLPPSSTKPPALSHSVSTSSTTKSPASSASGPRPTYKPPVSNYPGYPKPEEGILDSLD
Assay: SPR, huCD46-His immobilised, antibody as analyte, pH 6.5
pKd: −log10 of the molar value.
assay.readout: pKd

>>> quantitative_readout("BA-133-04-02 (antibody, V domains shown, also called CPE hit BA133-04-02) VH: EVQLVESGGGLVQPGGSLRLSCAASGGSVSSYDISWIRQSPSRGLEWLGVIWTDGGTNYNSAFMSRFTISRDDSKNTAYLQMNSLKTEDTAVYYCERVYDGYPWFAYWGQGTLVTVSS VL: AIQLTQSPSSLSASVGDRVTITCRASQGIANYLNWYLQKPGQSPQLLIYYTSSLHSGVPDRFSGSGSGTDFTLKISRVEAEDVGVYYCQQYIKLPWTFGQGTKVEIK")
8.64
>>> quantitative_readout("BA-133-04-03 (antibody, V domains shown, also called CPE hit BA133-04-03) VH: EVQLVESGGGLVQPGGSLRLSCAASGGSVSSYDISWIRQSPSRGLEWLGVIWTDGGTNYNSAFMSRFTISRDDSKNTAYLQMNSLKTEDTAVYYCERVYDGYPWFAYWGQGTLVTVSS VL: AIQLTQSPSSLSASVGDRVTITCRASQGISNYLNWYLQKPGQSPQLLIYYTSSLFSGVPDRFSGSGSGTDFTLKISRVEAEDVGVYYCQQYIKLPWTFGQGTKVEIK")
8.68
>>> quantitative_readout("BA-133-04-01 (antibody, V domains shown, also called CPE hit BA133-04-01) VH: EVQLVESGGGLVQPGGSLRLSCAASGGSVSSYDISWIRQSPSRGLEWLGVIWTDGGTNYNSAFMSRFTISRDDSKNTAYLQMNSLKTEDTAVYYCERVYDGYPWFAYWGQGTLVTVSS VL: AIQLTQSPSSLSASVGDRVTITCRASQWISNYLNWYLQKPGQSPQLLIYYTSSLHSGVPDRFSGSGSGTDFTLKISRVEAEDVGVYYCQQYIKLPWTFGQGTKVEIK")
8.75
>>> quantitative_readout("BA-133-04-04 (antibody, V domains shown, the killing assays used the ADC form; also called CPE hit BA133-04-04) VH: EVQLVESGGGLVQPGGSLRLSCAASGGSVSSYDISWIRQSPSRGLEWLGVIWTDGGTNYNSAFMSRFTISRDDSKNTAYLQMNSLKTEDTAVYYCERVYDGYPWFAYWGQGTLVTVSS VL: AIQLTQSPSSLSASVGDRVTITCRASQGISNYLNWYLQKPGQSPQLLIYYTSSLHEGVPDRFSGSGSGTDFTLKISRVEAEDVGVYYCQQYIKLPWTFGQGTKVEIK")
8.72
